These entries and their values trace back to the supplement of paper PMC6555819.

System: THRa:RXRa (NR concentration 90 nM, RXRa partner concentration 90 nM)
Assay: PBM binding z-score (relative to random genomic background probes); higher = stronger binding; sequences stand for … in GC…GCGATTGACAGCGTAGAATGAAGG
I'd appreciate it if you could supply PBM binding z-score values for the items below.
Give bare numbers.

Take a look at these entries with their results.
- TAGCCTAGGTCATGCGGTCCAGTATAGTGTCGGC: 3
- CCTACTGGGCCAAAAAGGTCAATGATGCCGATAA: 3.06

// moving on: another record for PBM binding z-score
Per the record, TATACAGGGTCAAAAGCCAGAGTACGAATGTCGA has PBM binding z-score of 3.04
